- targetSystem: human OT7T175 (metastin receptor) (human, UniProt Q969F8 1-398)
- Sequence (Q969F8 whole entry L364H): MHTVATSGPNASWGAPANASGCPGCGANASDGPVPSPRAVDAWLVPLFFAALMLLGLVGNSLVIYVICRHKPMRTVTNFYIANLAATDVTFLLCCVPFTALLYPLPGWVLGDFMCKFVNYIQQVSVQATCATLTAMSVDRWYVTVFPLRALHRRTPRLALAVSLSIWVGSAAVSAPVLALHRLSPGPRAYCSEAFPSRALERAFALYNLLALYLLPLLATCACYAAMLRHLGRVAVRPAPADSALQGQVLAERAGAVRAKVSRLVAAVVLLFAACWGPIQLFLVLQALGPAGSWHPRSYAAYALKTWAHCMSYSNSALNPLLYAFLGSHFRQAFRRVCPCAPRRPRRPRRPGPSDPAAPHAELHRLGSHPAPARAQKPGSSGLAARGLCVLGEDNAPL
- experiment: cell-based or functional assay
Non-standard residues stand in square brackets, D forms with d. No end group written: not given here. Phe(4-F) = N[C@@H](Cc1ccc(F)cc1)C(=O)O; Arg(Me) = CNC(=N)NCCC[C@H](N)C(=O)O; Orn = NCCC[C@H](N)C(=O)O; azaGly = NNC(=O)O
recordedMetric: Ca ion level-increasing activity (FLIPR, 40 s) (EC50/MS10 EC50)
Expressed in EC50/MS10 EC50, but write only the number.

Consider the binder [dY]NINSFGL[Arg(Me)]F-NH2 (N-terminus assumed; SMILES CC[C@H](C)[C@H](NC(=O)[C@H](CC(N)=O)NC(=O)[C@H](N)Cc1ccc(O)cc1)C(=O)N[C@@H](CC(N)=O)C(=O)N[C@@H](CO)C(=O)N[C@@H](Cc1ccccc1)C(=O)NCC(=O)N[C@@H](CC(C)C)C(=O)N[C@@H](CCCNC(=N)NC)C(=O)N[C@@H](Cc1ccccc1)C(N)=O, also called Compound No. 206) [[D-Tyr1,Ile3,Arg(Me)9]MS10] . State its measured Ca ion level-increasing activity (FLIPR, 40 s). 4.8

Consider the binder Y[dN]WNSFGLRF-NH2 [[D-Asn2]MS10] . State its measured Ca ion level-increasing activity (FLIPR, 40 s). 2.7

Consider the binder YNWNSFGL[Arg(Me)]F-NH2 (also called Compound No. 82) [[Arg(Me)9]MS10] . State its measured Ca ion level-increasing activity (FLIPR, 40 s). 1

Consider the binder YNWNSFGL[Orn]F-NH2 (N-terminus assumed; SMILES CC(C)C[C@H](NC(=O)CNC(=O)[C@H](Cc1ccccc1)NC(=O)[C@H](CO)NC(=O)[C@H](CC(N)=O)NC(=O)[C@H](Cc1c[nH]c2ccccc12)NC(=O)[C@H](CC(N)=O)NC(=O)[C@@H](N)Cc1ccc(O)cc1)C(=O)N[C@@H](CCCN)C(=O)N[C@@H](Cc1ccccc1)C(N)=O, also called Compound No. 314) [[Orn9]MS10] . State its measured Ca ion level-increasing activity (FLIPR, 40 s). 4.4

Consider the binder [dY]NWNSF[azaGly]L[Arg(Me)][Phe(4-F)]-NH2 (also called Compound No. 318) [[D-Tyr1,AzaGly7,Arg(Me)9,Phe(4F)10]MS10] . State its measured Ca ion level-increasing activity (FLIPR, 40 s). 2.9

Consider the binder [dY]NWNSF[azaGly]L[Arg(Me)]F-NH2 (also called Compound No. 232) [[D-Tyr1,AzaGly7,Arg(Me)9]MS10] . State its measured Ca ion level-increasing activity (FLIPR, 40 s). 3.9

Consider the binder [dY]INSF[azaGly]L[Arg(Me)]F-NH2 (also called Compound No. 240) [des(1)-[D-Tyr2,Ile3,AzaGly7,Arg(Me)9]MS10] . State its measured Ca ion level-increasing activity (FLIPR, 40 s). 4.9

Consider the binder [dY]NWTSFGL[Arg(Me)]F-NH2 (also called Compound No. 208) [[D-Tyr1,Thr4,Arg(Me)9]MS10] . State its measured Ca ion level-increasing activity (FLIPR, 40 s). 7.3

Consider the binder YNWNSFGLRY-NH2 (also called Compound No. 109) [[Tyr10]MS10] . State its measured Ca ion level-increasing activity (FLIPR, 40 s). 2.6

Consider the binder [dY]NWNSFGLRF-NH2 [[D-Tyr1]MS10] . State its measured Ca ion level-increasing activity (FLIPR, 40 s). 1.6
